- System: C57BL6 mice fed High Fat Diet
- assayDetails: Food consumption in High Fat Diet fed mice
- Type: in vivo
- assaySetup: Dose 11 μM/kg intraperitoneally, 7-15 days
resultType: increase in food consumption with reference to vehicle

In [3]: df
Out[3]:
                                   compound    reading
0  Cc1nn(Cc2nnn[nH]2)c(C)c1Oc1ccc(O)c2c1CCC2 [Compound 3]  No change
1  COc1c(C)cc(Cc2c(C)nn(CCC(=O)O)c2C)c2c1CCC2 [Compound 14]  No change
2  Cc1nn(CC(=O)Nc2nnn[nH]2)c(C)c1Oc1ccc(O)c2c1CCC2 [Compound 6]  No change
3  Cc1nn(CCC(=O)O)c(C)c1Oc1ccc(O)c2c1CCC2 [Compound 1]  No change
4  CCc1nn(CCC(=O)O)c(CC)c1Cc1cc(C)c(O)c2c1CCC2 [Compound 20]  No change
5  Cc1cc(Cc2c(C)nn(CCC(=O)O)c2C)c2c(c1O)CCC2 [Compound 9]  No change
6  Cc1nn(CCC(=O)O)c(C)c1Cc1ccc2[nH]ccc2c1 [Compound 2]  No change
7  CCc1nn(CC(=O)O)c(CC)c1Cc1cc(C)c(O)c2c1CCC2 [Compound 19]  No change

----------
- subjectOfTest: THR α1 (Homo sapiens, UniProt P10827)
- Construct: GAL4 (plasmid pGAL4); expressed in transfected cells; host or cells: COS7
- Sequence (P10827 1-410 isoform P10827-2): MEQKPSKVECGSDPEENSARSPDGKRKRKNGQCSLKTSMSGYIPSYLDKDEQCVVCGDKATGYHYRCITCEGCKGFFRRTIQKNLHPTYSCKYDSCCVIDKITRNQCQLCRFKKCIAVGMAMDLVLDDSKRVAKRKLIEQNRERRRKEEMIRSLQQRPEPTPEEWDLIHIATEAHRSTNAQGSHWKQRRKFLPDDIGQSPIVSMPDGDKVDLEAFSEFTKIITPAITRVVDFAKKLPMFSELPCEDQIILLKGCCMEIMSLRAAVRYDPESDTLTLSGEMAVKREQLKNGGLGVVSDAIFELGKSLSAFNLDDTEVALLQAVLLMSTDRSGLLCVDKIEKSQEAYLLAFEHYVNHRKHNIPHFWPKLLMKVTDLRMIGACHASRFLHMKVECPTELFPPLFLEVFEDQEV
- assayDetails: Thyroid α1 transactivation (TRE reporter, luciferase) in COS7 cells
- Type: cell-based
- assaySetup: Conc. 20 uM, 24 hours, vs vehicle control
resultType: α1 Fold Activation (Fold)

                            molecularstring                          subjectoftest  unitslabel  reading
0  Cc1nn(Cc2nnn[nH]2)c(C)c1Oc1ccc(O)c2c1CCC2  THR α1 (Homo sapiens, UniProt P10827)        Fold        1
1  Cc1cc(Cc2c(C)nn(CCC(=O)O)c2C)c2c(c1O)CCC2  THR α1 (Homo sapiens, UniProt P10827)        Fold      2.5
2    Cc1nn(CCC(=O)O)c(C)c1Cc1ccc2[nH]ccc2c1  THR α1 (Homo sapiens, UniProt P10827)        Fold        1
3    Cc1nn(CCC(=O)O)c(C)c1Oc1ccc(O)c2c1CCC2  THR α1 (Homo sapiens, UniProt P10827)        Fold        1

----------
- subjectOfTest: THR β1 (Homo sapiens, UniProt P10828)
- Construct: GAL4 (plasmid pGAL4); expressed in transfected cells; host or cells: COS7
- Sequence (P10828 whole entry, the tested form may be a part): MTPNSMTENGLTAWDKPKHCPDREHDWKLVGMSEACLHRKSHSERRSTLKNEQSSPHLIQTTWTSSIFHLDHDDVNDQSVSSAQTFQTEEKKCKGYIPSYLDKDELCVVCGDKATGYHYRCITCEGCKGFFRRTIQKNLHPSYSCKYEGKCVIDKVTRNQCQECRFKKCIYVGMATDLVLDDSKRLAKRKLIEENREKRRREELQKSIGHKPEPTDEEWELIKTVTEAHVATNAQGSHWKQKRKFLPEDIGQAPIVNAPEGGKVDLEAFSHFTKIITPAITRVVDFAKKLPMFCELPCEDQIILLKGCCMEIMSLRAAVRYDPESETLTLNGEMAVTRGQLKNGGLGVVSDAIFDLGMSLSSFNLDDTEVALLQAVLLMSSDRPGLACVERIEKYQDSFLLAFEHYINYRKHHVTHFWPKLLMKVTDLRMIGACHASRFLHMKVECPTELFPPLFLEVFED
- assayDetails: Thyroid β1 transactivation (TRE reporter, luciferase) in COS7 cells
- Type: cell-based
- assaySetup: Conc. 20 uM, 24 hours, vs vehicle control
// reported β1 Fold Activation per item
resultType: β1 Fold Activation (Fold)

In [3]: df
Out[3]:
                                   compound  unitslabel  reading
0  Cc1nn(Cc2nnn[nH]2)c(C)c1Oc1ccc(O)c2c1CCC2 [Compound 3]        Fold        1
1  Cc1nn(CCC(=O)O)c(C)c1Cc1ccc2[nH]ccc2c1 [Compound 2]        Fold        1
2  Cc1cc(Cc2c(C)nn(CCC(=O)O)c2C)c2c(c1O)CCC2 [Compound 9]        Fold        2
3  Cc1nn(CCC(=O)O)c(C)c1Oc1ccc(O)c2c1CCC2 [Compound 1]        Fold        1
